# APPLIED_CONDITIONS: in ethanol, 273.15 K
ASSAY_METRIC: solubility (mole fraction)
Enter a number only.

Give me measured solubility (mole fraction), please, for this compound: CCOc1cc(C=O)ccc1O
0.0564

----------
# APPLIED_CONDITIONS: in acetone, 283.15 K
ASSAY_METRIC: solubility (mole fraction)
Enter a number only.

Give me measured solubility (mole fraction), please, for this compound: CCOc1cc(C=O)ccc1O
0.237

----------
# APPLIED_CONDITIONS: in ethanol, 313.15 K
ASSAY_METRIC: solubility (mole fraction)
Enter a number only.

Give me measured solubility (mole fraction), please, for this compound: CCOc1cc(C=O)ccc1O
0.34

----------
# APPLIED_CONDITIONS: in acetone, 313.15 K
ASSAY_METRIC: solubility (mole fraction)

Give me measured solubility (mole fraction), please, for this molecule: CCOc1cc(C=O)ccc1O
0.459

----------
# APPLIED_CONDITIONS: in methanol, 283.15 K
ASSAY_METRIC: solubility (mole fraction)

Give me measured solubility (mole fraction), please, for this molecule: CCOc1cc(C=O)ccc1O
0.147

----------
# APPLIED_CONDITIONS: in methanol, 278.15 K
ASSAY_METRIC: solubility (mole fraction)
Enter a number only.

Give me measured solubility (mole fraction), please, for this compound: CCOc1cc(C=O)ccc1O
0.114

----------
# APPLIED_CONDITIONS: in ethanol, 293.15 K
ASSAY_METRIC: solubility (mole fraction)
Enter a number only.

Give me measured solubility (mole fraction), please, for this compound: CCOc1cc(C=O)ccc1O
0.141

----------
# APPLIED_CONDITIONS: in isopropanol, 288.15 K
ASSAY_METRIC: solubility (mole fraction)
Enter a number only.

Give me measured solubility (mole fraction), please, for this molecule: CCOc1cc(C=O)ccc1O
0.072

----------
# APPLIED_CONDITIONS: in ethanol, 298.15 K
ASSAY_METRIC: solubility (mole fraction)
Enter a number only.

Give me measured solubility (mole fraction), please, for this compound: CCOc1cc(C=O)ccc1O
0.183

----------
# APPLIED_CONDITIONS: in methanol, 303.15 K
ASSAY_METRIC: solubility (mole fraction)
Enter a number only.

Give me measured solubility (mole fraction), please, for this compound: CCOc1cc(C=O)ccc1O
0.307

----------
# APPLIED_CONDITIONS: in ethanol, 308.15 K
ASSAY_METRIC: solubility (mole fraction)
Enter a number only.

Give me measured solubility (mole fraction), please, for this compound: CCOc1cc(C=O)ccc1O
0.283

----------
# APPLIED_CONDITIONS: in isopropanol, 278.15 K
ASSAY_METRIC: solubility (mole fraction)
Enter a number only.

Give me measured solubility (mole fraction), please, for this compound: CCOc1cc(C=O)ccc1O
0.0433

----------
# APPLIED_CONDITIONS: in methanol, 308.15 K
ASSAY_METRIC: solubility (mole fraction)
Enter a number only.

Give me measured solubility (mole fraction), please, for this molecule: CCOc1cc(C=O)ccc1O
0.358

----------
# APPLIED_CONDITIONS: in ethanol, 283.15 K
ASSAY_METRIC: solubility (mole fraction)

Give me measured solubility (mole fraction), please, for this molecule: CCOc1cc(C=O)ccc1O
0.0911

----------
# APPLIED_CONDITIONS: in methanol, 313.15 K
ASSAY_METRIC: solubility (mole fraction)
Enter a number only.

Give me measured solubility (mole fraction), please, for this compound: CCOc1cc(C=O)ccc1O
0.418

The measurements presented in this section are drawn from BigSolDB 2.1.
